Data credit: PubChem BioAssay

- ASSAY SYSTEM: Streptavidin (Streptomyces avidinii)
- ASSAY SUMMARY: compounds binding control protein streptavidin – biophysical, small-molecule microarray, 635/667 nm fluorescence, artefact control for SMM compound annotation, primary screen (AID 1147);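 further: signal reflects streptavidin binding to arrayed compounds as a control protein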
- CONDITION INFO: higher = more signal

| COMPOUND | composite z-score |
| --- | --- |
| C[C@@H]1Cc2c(cnc3c2CN(C)CC3)CO1 | -0.179 |
| CCCc1cc2c(n1Cc1ccco1)C(C)C1CN(C(=O)c3ccccc3)C(C)(C(=O)OC)C21 (stereo unspecified) | 1 |
| C=C(CC1(C(C)NP(=O)(c2ccccc2)c2ccccc2)CC1)c1ccccc1 (stereo unspecified) | 0.416 |
| c1ccc(-c2cc3c(nc2-c2ccccc2)CCNC3)cc1 | 0.0291 |
| COC(=O)[C@@]1(Cc2ccccc2)[C@H]2c3cc(C(=O)N(C)C)n(C)c3C[C@H]2CN1C(=O)c1ccccc1 | 1.78 |
| CCOC(=O)[C@H]1CC=C2C(=O)Oc3ccccc3[C@@H]21 | -0.521 |
| COc1cc2c(cc1O)C=[N+](C)CC2 | -0.306 |
| C[C@@H]1OC=C2[C@@H](O)[C@H]3O[C@H]3C(=O)[C@]23[C@H]1[C@H]1C2=C([C@@H](O)[C@H]4O[C@H]4C2=O)[C@@H]3O[C@@H]1C | -0.0542 |
| CCCc1cc2c(n1Cc1cccc(Cl)c1)C(C)C1CN(C(=O)c3ccccc3)C(C)(C(=O)OC)C21 (stereo unspecified) | 0.78 |
| CCCc1cc2c(n1CCO)C(C)C1CN(C(=O)c3ccccc3)C(C)(C(=O)OC)C21 (stereo unspecified) | 1.04 |
| COC(=O)[C@@]1(Cc2ccc(F)cc2)[C@H]2c3cc(C(=O)N(C)C)[nH]c3C[C@H]2CN1C(=O)c1ccccc1 | 0.134 |
| CN1CCC(c2ccc(CO)cc2)=CC1c1cccs1 (stereo unspecified) | -0.511 |
| OCc1ccc(C2=CC(c3cccs3)N(Cc3cccc(OC(F)(F)F)c3)CC2)cc1 (stereo unspecified) | -0.0232 |
| CCCC=C(CCC)[C@@H](NP(=O)(c1ccccc1)c1ccccc1)c1ccccc1 | 0.821 |
| O=P(c1ccccc1)(c1ccccc1)N1CC2(CC2)CC(O)(c2ccccc2)C1 (stereo unspecified) | 0.386 |
| C=C(CC1(CNP(=O)(c2ccccc2)c2ccccc2)CC1)c1ccccc1 | -0.0187 |

====

- ASSAY SYSTEM: Homeobox protein Hox-A13 (Mus musculus) (UniProt Q62424)
- Sequence (Q62424 whole entry, looked up): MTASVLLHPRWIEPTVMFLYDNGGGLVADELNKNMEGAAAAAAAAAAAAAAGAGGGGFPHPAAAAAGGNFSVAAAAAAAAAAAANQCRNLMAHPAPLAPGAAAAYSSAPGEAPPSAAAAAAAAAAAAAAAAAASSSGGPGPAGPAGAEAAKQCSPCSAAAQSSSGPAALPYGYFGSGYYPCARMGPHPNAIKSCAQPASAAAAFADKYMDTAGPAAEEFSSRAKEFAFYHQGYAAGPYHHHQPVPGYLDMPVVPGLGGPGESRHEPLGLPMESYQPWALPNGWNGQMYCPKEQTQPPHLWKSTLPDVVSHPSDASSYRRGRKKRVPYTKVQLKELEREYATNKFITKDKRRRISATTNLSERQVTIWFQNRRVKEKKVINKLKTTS
- ASSAY SUMMARY: disruptors of Hoxa13 oligonucleotide interaction – biochemical, fluorescence polarization, labeled oligonucleotide, primary screen (AID 1185)
- CONDITION INFO: Hoxa13:DNA binding, 15 min; higher = more signal, called active from +8 up or from −8 down unless noted
Response key: satisfied means z-score >= -2; not satisfied means z-score < -2.

| COMPOUND | CLASS NAME |
| --- | --- |
| CN1CCC(c2ccc(CO)cc2)=CC1C1CC1 (centres undefined) | satisfied |
| C=C(CC1(C(C)NP(=O)(c2ccccc2)c2ccccc2)CC1)c1ccccc1 (centres undefined) | not satisfied |
| COc1cc2c(cc1O)C=[N+](C)CC2 | not satisfied |
| CN1CCC(c2ccc(CO)cc2)=CC1c1cccs1 (centres undefined) | not satisfied |
| OCc1ccc(C2=CC(c3cccs3)N(Cc3cccc(OC(F)(F)F)c3)CC2)cc1 (centres undefined) | satisfied |
| C[C@@H]1Cc2c(cnc3c2CN(C)CC3)CO1 | not satisfied |
| COC(=O)[C@H]1C(=O)c2ccccc2O[C@@](C(=O)OC)(c2ccccc2)[C@@H]1c1ccccc1 | satisfied |
| CCCC=C(CCC)[C@@H](NP(=O)(c1ccccc1)c1ccccc1)c1ccccc1 | satisfied |
| COC(=O)[C@@]1(Cc2ccccc2)[C@H]2c3cc(C(=O)N(C)C)n(C)c3C[C@H]2CN1C(=O)c1ccccc1 | not satisfied |
